%Inh: recorded values
- Tested on: CSNK2A2
- study_conditions: concentration: 1 μM, replicates: in singlicate; n = 1;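 also: KINOMEscan kinase panel screen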
Number only, in %; omit the unit.

Look over these answered cases.
compound	target_or_test_system	%Inh, %
CCn1cnc2c(NCc3ccccc3)ncnc21 [SKF-96418]	CSNK2A2	0
Nc1ncc(-c2cn[nH]c2)c2scc(-c3ccc4c(c3)CCN4C(=O)Cc3ccccc3)c12 [GSK2593067]	CSNK2A2	0
CN(c1ccc2c(c1)nc(NCc1ccccc1)n2C)c1ccnc(Nc2ccc(CS(C)(=O)=O)cc2)n1.Cl [GW811603]	CSNK2A2	8
O=C(Nc1c(F)cccc1F)c1cc(C(=O)c2ccccc2F)c[nH]1 [GSK1326180]	CSNK2A2	0
Cc1ccc(C)c(NC(=O)Nc2ccc(C)c(-c3ccc(C(=O)Nc4ccncc4)cc3)c2)c1 [GSK1398473]	CSNK2A2	0

Give the reported value of %Inh for this record: COC(=O)Nc1nc2ccc(Oc3ccc(CC(=O)Nc4cc(C(F)(F)F)ccc4F)cc3)cc2[nH]1 [GW680903]
0

Give the reported value of %Inh for this record: O=C(Nc1n[nH]c2nc(-c3ccccc3)ccc12)C1CC1 [SB-708999]
75

Give the reported value of %Inh for this record: Cl.O=C(Nc1ccc(Oc2ccc3[nH]c(NC(=O)c4ccco4)nc3c2)cc1)Nc1cc(C(F)(F)F)ccc1F [GW683134]
0

Give the reported value of %Inh for this record: O=C(Nc1n[nH]c2nc(-c3ccccc3O)ccc12)C1CC1 [SB-711880]
84

----------
- Test system: PIM1
- study_conditions: concentration: 1 μM, replicates: in singlicate; n = 1
%Inh: recorded values
Write down the value, and be sure its unit follows.

Look over these answered cases.
input_smiles	%Inh
c1ccc(Oc2ccc(Nc3ccnc4cc(-c5ccc(CN6CCCCC6)o5)ccc34)cc2)nc1	0%
Nc1ncc(-c2ccc3nccc(-c4ccncc4)c3c2)cc1S(=O)(=O)N1CCCCC1	8%
COC(=O)Nc1nc2ccc(Oc3ccc(CC(=O)Nc4cc(C(F)(F)F)ccc4F)cc3)cc2[nH]1	19%
Cc1cc(-c2ccnc(Nc3cccc(C#N)c3)n2)cc(C)c1O	0%
Cc1ccc(Nc2ccnc(Nc3ccc(C)c(F)c3)n2)cc1O.Cl	52%

Identify measured %Inh obtained with PIM1 for Cc1ccc(C)c(NC(=O)Nc2ccc(C)c(-c3ccc(C(=O)Nc4ccncc4)cc3)c2)c1 .
16%

Identify measured %Inh obtained with PIM1 for COc1cccc(C2=C(Nc3cccc(O)c3)C(=O)NC2=O)c1 .
26%

Identify measured %Inh obtained with PIM1 for Cc1ccc(O)cc1Nc1ccnc2ccc(C(C)(C)C)cc12 .
37%

Identify measured %Inh obtained with PIM1 for O=C(O)C(F)(F)F.O=c1[nH]ccc2nc(N[C@@H]3CCNC3)nc(Nc3ccc4c(c3)S(=O)(=O)CC4)c12 .
89%

----------
- System: TYRO3
- study_conditions: concentration: 1 μM, replicates: in singlicate; n = 1
parameter_measured: %Inh (%)
Number only, in %; omit the unit.

compound	parameter_measured	unit_text	result_number
Nc1cccc(-c2ccc3c(N)n[nH]c3c2)c1 [GSK2193613]	%Inh	%	0
CC(C)NCC(Cc1ccccc1)NC(=O)c1cc(Br)c(-c2ccnc3[nH]ccc23)s1.Cl.Cl (stereo not drawn) [GSK1383281]	%Inh	%	0
CCOc1nccc(-c2c(-c3ccc(F)cc3)ncn2C2CCNCC2)n1 [SB-249175]	%Inh	%	15
N#CC1(c2cccc(C(=O)Nc3cccc(Oc4ccc5nc(NC(=O)C6CC6)sc5n4)c3)c2)CC1	%Inh	%	53
CC(C)c1nc(-c2ccc(F)c(NS(=O)(=O)c3c(F)cccc3F)c2)c(-c2ccnc(Nc3ccc(N4CCOCC4)nc3)n2)s1 [GSK1804250]	%Inh	%	86
Nc1ncc(-c2ccc3nccc(-c4ccncc4)c3c2)cc1S(=O)(=O)N1CCCCC1 [GSK1693850]	%Inh	%	0
CSc1ccc(NC2=C(c3ccc(Cl)cc3)C(=O)NC2=O)cc1 [SB-317658]	%Inh	%	0
COc1cccc(NC(=O)NCCNc2ccnc(Nc3ccc(F)cc3)n2)c1 [GSK1379879]	%Inh	%	0

Identify measured %Inh obtained with TYRO3 for O=C(Nc1c(F)cccc1F)c1cc(C(=O)c2ccccc2F)c[nH]1 [GSK1326180] .
0

Identify measured %Inh obtained with TYRO3 for Cc1ccc(NC(=O)c2cccc(N3CCCCC3)c2)cc1-c1ccc(C(=O)NCC2CC2)cc1 [GSK1917008] .
0

Identify measured %Inh obtained with TYRO3 for Cc1nn2c(=O)cc(N3CCO[C@H](C)C3)nc2n1Cc1cccc(Cl)c1Cl [GSK2373693] .
15

Identify measured %Inh obtained with TYRO3 for Cl.Cl.NCC(NC(=O)c1cc(-c2cccnc2)c(-c2ccnc3[nH]ccc23)s1)c1ccccc1 (stereo not drawn) [GSK1323434] .
0

Identify measured %Inh obtained with TYRO3 for CN(c1ccc(NC(=O)Nc2cccc(Cl)c2)cc1)c1ccnc(N)n1.Cl [GW830707] .
0

Identify measured %Inh obtained with TYRO3 for Cc1cc(-c2ccnc(Nc3cccc(C#N)c3)n2)cc(C)c1O [GSK1440913] .
23

Identify measured %Inh obtained with TYRO3 for CN(C)c1ncnc2nc[nH]c12 [SKF-31736] .
0

Identify measured %Inh obtained with TYRO3 for Cl.Cl.NC(CNC(=O)c1cc(Br)c(-c2ccnc3[nH]ccc23)s1)c1ccccc1 (stereo not drawn) [GSK1322949] .
0

Identify measured %Inh obtained with TYRO3 for Cc1ccc(C)c(NC(=O)Nc2ccc(C)c(-c3ccc(C(=O)Nc4ccncc4)cc3)c2)c1 [GSK1398473] .
20

Identify measured %Inh obtained with TYRO3 for O=C(O)C(F)(F)F.O=c1[nH]ccc2nc(N[C@@H]3CCNC3)nc(Nc3ccc4c(c3)S(=O)(=O)CC4)c12 [GSK2181306] .
2

Identify measured %Inh obtained with TYRO3 for O=C(Nc1n[nH]c2nc(-c3ccccc3)ccc12)C1CC1 [SB-708999] .
6

Identify measured %Inh obtained with TYRO3 for CN(C)CCOc1ccc(-c2cc(-c3ccc(Cl)c(O)c3)c(-c3ccncc3)[nH]2)cc1.Cl.Cl [SB-684387] .
6

----------
- System: ERK4
- Construct: gene MAPK4
- study_conditions: concentration: 1 μM, replicates: in singlicate; n = 1
parameter_measured: %Inh
Write down the value, and be sure its unit follows.

compound	%Inh
Cn1cc(-c2ccc3c(c2)CCN3C(=O)Cc2cc(F)cc(F)c2F)c2c(N)ncnc21 [GSK2634140]	0%
Cc1ccc(NC(=O)c2ccc(Cl)c(Cl)c2)cc1-c1ccc(C(=O)Nc2ccncc2)cc1 [GSK1398460]	13%
CN(c1ccc(NC(=O)Nc2cccc(Cl)c2)cc1)c1ccnc(N)n1.Cl [GW830707]	0%
Cl.O=C(Nc1ccc(Oc2ccc3[nH]c(NC(=O)c4ccco4)nc3c2)cc1)Nc1cc(C(F)(F)F)ccc1F [GW683134]	14%
Cl.Cl.NC(CNC(=O)c1cc(Br)c(-c2ccnc3[nH]ccc23)s1)c1ccccc1 (centres unmarked) [GSK1322949]	27%
COc1cc(Nc2nccc(N3CCC(NC(=O)Nc4ccc5c(c4)OCO5)C3)n2)cc(OC)c1OC (centres unmarked) [GSK1379766]	0%
CCn1c(-c2nonc2N)nc2c(-c3ccccc3)ncc(OCCCN)c21.O=C(O)C(F)(F)F.O=C(O)C(F)(F)F [GSK260205]	0%
Nc1cccc(-c2ccc3c(N)n[nH]c3c2)c1 [GSK2193613]	14%

Give the reported value of %Inh for this record: COc1ccc(C2=C(Nc3cccc(O)c3)C(=O)NC2=O)cc1 [SB-390766]
22%

Give the reported value of %Inh for this record: COC(=O)Nc1nc2ccc(Oc3ccc(CC(=O)Nc4cc(C(F)(F)F)ccc4F)cc3)cc2[nH]1 [GW680903]
7%

Give the reported value of %Inh for this record: N#CC1(c2cccc(C(=O)Nc3cccc(Oc4ccc5nc(NC(=O)C6CC6)sc5n4)c3)c2)CC1
0%

Give the reported value of %Inh for this record: CN(c1ccc(NC(=O)N2CCN(CCCN3CCOCC3)CC2)cc1)c1ccnc(Nc2ccc(CS(C)(=O)=O)cc2)n1.Cl [GW830899]
8%

Give the reported value of %Inh for this record: COC(=O)Nc1nc2cc(Oc3ccc(NC(=O)Nc4cccc(SC)c4)cc3)ccc2[nH]1.Cl [GW697999]
8%

Give the reported value of %Inh for this record: COc1cc(Nc2ccnc3cc(-c4ccncc4)ccc23)cc(OC)c1OC.Cl [GW494610]
0%

Give the reported value of %Inh for this record: CS(=O)(=O)c1cccc(CNc2nc(Nc3ccc4c(c3)CCC(=O)N4)ncc2C(F)(F)F)c1
0%

Give the reported value of %Inh for this record: CCNc1nccc(-c2c(-c3ccc(F)cc3)ncn2C2CCN(C)CC2)n1
0%

Give the reported value of %Inh for this record: CC(C)(C)c1ccc(C(=O)Nc2cn3cc(-n4ccnc4)ccc3n2)cc1
5%

Reference source for all entries: paper PMC5540273
